These entries and their values trace back to patent US20260209345A1.

Molecular target: T1, recombinant LILRA3 (human, UniProt Q8N6C8 24-439)
T1 construct: whole entry named; also called LILRA3 ECD; LILA3
T1 sequence (Q8N6C8 24-439 limits assumed): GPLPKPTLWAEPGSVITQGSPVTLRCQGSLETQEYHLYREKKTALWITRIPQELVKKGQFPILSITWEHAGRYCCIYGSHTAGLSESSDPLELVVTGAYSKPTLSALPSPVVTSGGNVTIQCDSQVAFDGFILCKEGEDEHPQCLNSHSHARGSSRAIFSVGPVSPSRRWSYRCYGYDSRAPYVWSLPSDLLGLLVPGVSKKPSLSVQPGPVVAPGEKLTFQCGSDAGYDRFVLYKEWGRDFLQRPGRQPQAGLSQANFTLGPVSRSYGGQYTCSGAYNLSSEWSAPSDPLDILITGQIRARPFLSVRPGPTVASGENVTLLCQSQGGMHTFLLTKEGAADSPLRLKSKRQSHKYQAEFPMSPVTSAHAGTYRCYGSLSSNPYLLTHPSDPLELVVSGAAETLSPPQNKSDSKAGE
Assay: BLI, IgG on AHC sensor, ECD in solution
readout: Kd (nM)
Numbers only; they are read as nM.

[Q] Quick one: Kd of A-004 (antibody, V domains shown, tested as IgG) VH: QVQLVQSGAEVKKPGSSVKVSCKASGGTFRTKAIAWVRQAPGQGLEWMGGIIPIFSTANYAPKFQGRVTITADESTSTAYMELSSLRSEDTAVYYCAKDLGTYSSGWPYYYGMDVWGQGTTVTVSS VL: SYELTQPPSVSVSPGQTASITCSGDKLGDKYASWYQQKPGQSPVLVIYQDSKRPSGIPERFSGSNSGNTATLTISGTQAEDEADYYCQSTTHTSFVFGGGTKLTVL ?
[A] 232
